# measured_on: FXa (Homo sapiens)
# Sequence (P00742 235-488 limits assumed): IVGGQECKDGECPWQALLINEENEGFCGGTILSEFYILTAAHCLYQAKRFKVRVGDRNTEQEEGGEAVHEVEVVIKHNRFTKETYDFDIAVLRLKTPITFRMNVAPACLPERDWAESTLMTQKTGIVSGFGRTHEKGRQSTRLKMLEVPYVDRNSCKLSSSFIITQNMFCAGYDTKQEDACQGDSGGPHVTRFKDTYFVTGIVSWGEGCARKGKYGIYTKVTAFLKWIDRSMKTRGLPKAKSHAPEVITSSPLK
# Sequence (P00742 41-179 partner limits assumed): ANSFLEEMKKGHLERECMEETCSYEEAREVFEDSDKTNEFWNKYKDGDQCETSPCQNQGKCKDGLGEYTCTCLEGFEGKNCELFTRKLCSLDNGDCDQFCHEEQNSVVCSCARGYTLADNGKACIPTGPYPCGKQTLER
# protocol_description: Determination of selectivity: FXa inhibition, chromogenic substrate S2765 assay
# Format: biochemical
# assay_setup: fold selectivity for FXIIa over FXa
value_kind: FXa (human)/FXIIa alpha (human)

Worked cases, answers included:
COc1ccc(C[C@@H]2C[C@@H](C(=O)NCc3cc4cccnc4[nH]3)N(C(=O)[C@H](N)CCC(=O)N3CCCC3)C2)cc1 | ∘∘
COc1ccc2c(c1)CCNC2C(=O)N1C[C@H](Cc2ccncc2)C[C@H]1C(=O)NCc1ccc2c(c1)nnn2C (stereo partly shown) [Example M05463] | ∘∘
Cn1nnc2cc(CNC(=O)[C@@H]3C[C@H](Cc4cccc(Cl)c4)CN3C(=O)[C@H](N)CCC(=O)N3CCCC3)ccc21 | ∘∘∘
COc1ccc(C[C@@H]2C[C@@H](C(=O)NCc3cc4ccncc4[nH]3)N(C(=O)[C@H]3C[C@@H](c4ccccc4)CN3)C2)cc1 | ∘∘∘

Summary for this molecule, Cn1nnc2cc(CNC(=O)[C@@H]3C[C@@H](Cc4cccnc4)CN3C(=O)[C@H]3C[C@@H](c4ccccc4)CN3)ccc21 : FXa (human)/FXIIa alpha (human) is ∘∘

Notebook: Cn1nnc2cc(CNC(=O)[C@@H]3C[C@H](CC4CCOCC4)CN3C(=O)[C@H](N)CCC(=O)N3CCCC3)ccc21 , FXa (human)/FXIIa alpha (human) read as ∘∘

Given item COc1ccc(C[C@@H]2C[C@@H](C(=O)NCc3ccc4c(c3)nnn4C)N(C(=O)[C@H]3CC(c4ccccc4C(F)(F)F)CN3)C2)cc1 (stereo partly shown) , the value recorded as its FXa (human)/FXIIa alpha (human) is ∘∘∘

---

Recorded pKi by entry
# measured_on: FXIIa (Homo sapiens, UniProt P00748)
# Sequence (P00748 373-615 limits assumed): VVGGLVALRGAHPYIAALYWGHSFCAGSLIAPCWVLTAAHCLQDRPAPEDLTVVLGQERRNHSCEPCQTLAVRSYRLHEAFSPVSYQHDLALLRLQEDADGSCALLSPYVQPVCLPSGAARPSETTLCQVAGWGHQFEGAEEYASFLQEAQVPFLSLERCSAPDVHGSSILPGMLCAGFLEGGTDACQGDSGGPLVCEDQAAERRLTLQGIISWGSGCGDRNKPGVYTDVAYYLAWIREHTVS
# Sequence (P00748 20-372 partner limits assumed): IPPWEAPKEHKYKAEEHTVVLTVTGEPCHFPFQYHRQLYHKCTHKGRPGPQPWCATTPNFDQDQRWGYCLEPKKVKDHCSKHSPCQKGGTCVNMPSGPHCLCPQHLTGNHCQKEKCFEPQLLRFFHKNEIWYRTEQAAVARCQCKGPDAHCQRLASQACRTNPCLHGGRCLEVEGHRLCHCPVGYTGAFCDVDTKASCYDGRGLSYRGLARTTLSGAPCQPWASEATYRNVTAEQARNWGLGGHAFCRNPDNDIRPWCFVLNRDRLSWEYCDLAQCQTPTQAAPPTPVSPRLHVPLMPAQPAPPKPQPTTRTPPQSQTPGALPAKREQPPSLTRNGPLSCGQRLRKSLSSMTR
pKi: −log10 of the molar value.

Cn1nnc2cc(CNC(=O)[C@@H]3C[C@H](C(F)(F)F)CN3C(=O)[C@H](N)CCC(=O)N3CCCC3)ccc21 | < 5.70
Cn1nnc2cc(CNC(=O)[C@@H]3C[C@@H](Cc4ccncc4)CN3C(=O)[C@@H](CCC(=O)N3CCCC3)NCC(F)(F)F)ccc21 | < 5.70
COc1cncc(CC2C[C@@H](C(=O)NCc3ccc4c(c3)nnn4C)N(C(=O)[C@H](N)CCC(=O)N3CCCC3)C2)c1 (stereo partly drawn) | 5.70 to 6.70
Cn1nnc2cc(CNC(=O)[C@@H]3C[C@H](NC(=O)CCc4ccccc4)CN3C(=O)[C@H](N)CCc3ccccc3)ccc21 | < 5.70
COc1ccc(C[C@@H]2C[C@@H](C(=O)NCc3ccc4c(c3)nnn4C)N(C(=O)[C@H]3C[C@@H](c4ccccc4)CN3)C2)cc1Cl | 5.70 to 6.70

The measured pKi that CN(C)[C@H](CCC(=O)N1CCCC1)C(=O)N1C[C@H](Cc2ccncc2)C[C@H]1C(=O)NCc1ccc2c(c1)nnn2C showed for FXIIa (Homo sapiens, UniProt P00748) is 5.70 to 6.70

Given the compound COc1ccc(C[C@@H]2C[C@@H](C(=O)NCc3cc4cnccc4[nH]3)N(C(=O)C3NCCc4cc(Cl)ccc43)C2)cc1 (stereo partly drawn) and test system FXIIa (Homo sapiens, UniProt P00748), the measured pKi is > 6.70

Summary: COc1ccc(C[C@@H]2C[C@@H](C(=O)NCc3cc4ccncc4[nH]3)N(C(=O)[C@H](N)CCC(=O)N3CCCC3)C2)cc1 , FXIIa (Homo sapiens, UniProt P00748), pKi = > 6.70

The reported FXIIa (Homo sapiens, UniProt P00748) pKi of CC(=O)N(Cc1cccnc1)[C@H]1C[C@@H](C(=O)NCc2ccc3c(c2)nnn3C)N(C(=O)[C@H](N)CCc2ccccc2)C1 is < 5.70
